The values you see were collected from paper PMC3873296.

ASSAYED TARGET: UniProt P10584
Sequence (P10584 1-327): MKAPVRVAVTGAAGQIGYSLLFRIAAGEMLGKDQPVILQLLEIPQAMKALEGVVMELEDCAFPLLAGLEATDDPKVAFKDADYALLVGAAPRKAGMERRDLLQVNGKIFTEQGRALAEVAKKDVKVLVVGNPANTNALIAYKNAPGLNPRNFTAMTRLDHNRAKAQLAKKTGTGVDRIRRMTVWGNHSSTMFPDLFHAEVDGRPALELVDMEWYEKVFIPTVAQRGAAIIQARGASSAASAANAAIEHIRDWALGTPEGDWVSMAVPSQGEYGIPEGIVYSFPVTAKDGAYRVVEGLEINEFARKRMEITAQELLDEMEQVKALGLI
REPORTED PROPERTY: Kd (nM)
The answer is to be given in nM; state only the numeric part.

Kd measured on NC(=O)C1=CN([C@@H]2O[C@H](COP(=O)(O)OP(=O)(O)OC[C@H]3O[C@@H](n4cnc5c(N)ncnc54)[C@H](O)[C@@H]3O)[C@@H](O)[C@H]2O)C=CC1 [NADH] = 1160
